# Test system: Human immunodeficiency virus
# Assay name: Inhibition of HIV protease at 1 nM
Where inhibition equals or exceeds 60%, the correct label is Criterion met; where it does not, the label is Criterion not met.

Worked examples, 6 molecules total:
[[record]]
molecule = "CC(=O)NC(CSc1ccc2ccccc2c1)C(=O)N[C@@H](Cc1ccccc1)[C@H](O)C(=O)N1CSC(C)(C)[C@H]1C(=O)NCc1ccccc1C (stereo partly drawn)"
test_system = "Human immunodeficiency virus"
classification = "Criterion not met"

[[record]]
molecule = "CSC[C@H](NC(=O)COc1cccc2cnccc12)C(=O)N[C@@H](Cc1ccccc1)[C@H](O)C(=O)N1CSC[C@H]1C(=O)NC(C)(C)C"
test_system = "Human immunodeficiency virus"
classification = "Criterion not met"

[[record]]
molecule = "Cc1ccccc1CNC(=O)[C@H]1N(C(=O)[C@@H](O)[C@H](Cc2ccccc2)NC(=O)C(CS(=O)(=O)c2cccc3ccccc23)NS(C)(=O)=O)CSC1(C)C (stereo partly drawn)"
test_system = "Human immunodeficiency virus"
classification = "Criterion met"

[[record]]
molecule = "CC(=O)NC(CSc1cccc2ccccc12)C(=O)N[C@@H](Cc1ccccc1)[C@H](O)C(=O)N1CSC(C)(C)[C@H]1C(=O)NCc1ccccc1C (stereo partly drawn)"
test_system = "Human immunodeficiency virus"
classification = "Criterion met"

[[record]]
molecule = "Cc1c(O)cccc1C(=O)N[C@@H](CSc1ccccc1)[C@H](O)CN1C[C@H]2CCCC[C@H]2C[C@H]1C(=O)NC(C)(C)C"
test_system = "Human immunodeficiency virus"
classification = "Criterion not met"

[[record]]
molecule = "Cc1cc(C)c(NC(CSc2ccc3ccccc3c2)C(=O)N[C@@H](Cc2ccccc2)[C@H](O)C(=O)N2CSC(C)(C)[C@H]2C(=O)NCc2ccccc2C)c(C)c1 (stereo partly drawn)"
test_system = "Human immunodeficiency virus"
classification = "Criterion met"


[ask] hey, is inhibition for this one >= 60%? Cc1cc(C)c(NC(CSc2cccc3ccccc23)C(=O)N[C@@H](Cc2ccccc2)[C@H](O)C(=O)N2CSC(C)(C)[C@H]2C(=O)NCc2ccccc2C)c(C)c1 (stereo partly drawn)
[reply] Criterion met

###

# Test system: Human immunodeficiency virus
# Assay name: Inhibition of HIV protease at 1 nM
Output yes (1) for inhibition not less than 90%; output no (0) otherwise.

[[record]]
compound = "COc1ccc(CS(=O)(=O)C[C@@H](Nc2c(C)cc(C)cc2C)C(=O)N[C@@H](Cc2ccccc2)[C@H](O)C(=O)N2CSC(C)(C)[C@H]2C(=O)NCc2ccccc2C)cc1"
classification = "no (0)"

[[record]]
compound = "Cc1ccccc1CNC(=O)[C@H]1N(C(=O)[C@@H](O)[C@H](Cc2ccccc2)NC(=O)C(CS(=O)(=O)c2ccc3ccccc3c2)NS(C)(=O)=O)CSC1(C)C (stereo partly specified)"
classification = "yes (1)"

[[record]]
compound = "CC(=O)NC(CS(=O)(=O)c1ccc2ccccc2c1)C(=O)N[C@@H](Cc1ccccc1)[C@H](O)C(=O)N1CSC(C)(C)[C@H]1C(=O)NCc1ccccc1C (stereo partly specified)"
classification = "yes (1)"


[ask] Hello, I need to know if CC(=O)NC(CS(=O)(=O)c1cccc2ccccc12)C(=O)N[C@@H](Cc1ccccc1)[C@H](O)C(=O)N1CSC(C)(C)[C@H]1C(=O)NCc1ccccc1C (stereo partly specified) has measured inhibition not below 90%. Thanks!
[reply] yes (1)

[ask] Test whether the compound `COc1ccc(CSC[C@@H](NC(C)=O)C(=O)N[C@@H](Cc2ccccc2)[C@H](O)C(=O)N2CSC(C)(C)[C@H]2C(=O)NCc2ccccc2C)cc1` records inhibition of 90% or higher.
[reply] no (0)
